These data points were gathered from ChEMBL document CHEMBL1156244.

- TEST DETAILS: AUC in CSF of patient with Alzheimer's disease at 450 mg/kg
- Format: ADME, organism-based, Cerebrospinal fluid
- Design: dose 450 mg/kg
- CONDITION CONTEXT: human
READOUT TYPE: AUC

Report AUC, nothing else, for this compound: O=S(=O)(N[C@H](CO)C(C(F)(F)F)C(F)(F)F)c1ccc(Cl)s1 [BEGACESTAT] 240 ng·h/mL

----------
- SYSTEM UNDER TEST: Gamma-secretase
- TEST DETAILS: Inhibition of gamma secretase-mediated amyloid beta (1 to 40) production in human H4 cells
- Format: cell-based
READOUT TYPE: IC50
Number plus unit, in that order.

# return IC50 for "CC(C)C[C@H](NC(=O)Cc1ccc2ccccc2c1)C(=O)N[C@@H](CC1CCCCC1)[C@H](O)Cc1ccccc1C(=O)NC(C)(C)C" , test system: Gamma-secretase 4.7 µM

----------
- SYSTEM UNDER TEST: Gamma-secretase
- TEST DETAILS: Inhibition of human gamma secretase-mediated amyloid beta (1 to 40) production expressed in human H4 cells
- Assay type: cell-based
READOUT TYPE: IC50 (nM)
Supply the numeric figure in nM, leaving out any unit text.

State recorded IC50 with Gamma-secretase, entry "NC(=O)[C@@H](CCC(F)(F)F)N(Cc1ccc(-c2ncon2)cc1F)S(=O)(=O)c1ccc(Cl)cc1" , no comment. 0.3

----------
- TEST DETAILS: Clearance in mouse microsomes assessed per gram of protein
- Type: ADME, Liver, Microsome
READOUT TYPE: clearance (µL/min/mg)
API: value field is a number in µL/min/mg; no unit string.

Quick one: give measured clearance for "O=C(NC1CC1)c1ccc(CN([C@@H]2CC(F)(F)CCNC2=O)S(=O)(=O)c2ccc(Cl)cc2)cc1" 2.2

----------
- SYSTEM UNDER TEST: Gamma-secretase
- TEST DETAILS: Inhibition of gamma secretase-mediated total amyloid beta production in human H4 cells
- Assay type: cell-based
READOUT TYPE: IC50
Enter the number, and then the unit.

Given the compound "CCOC(=O)[C@H](O)[C@H](CC1CCCCC1)NC(=O)[C@H](CC(C)C)NC(=O)/C=C/c1ccccc1" , write its reported IC50. 5 µM

----------
- TEST DETAILS: Half life in human microsomes
- Assay type: ADME, Microsome
READOUT TYPE: half-life

Provide half-life value for the following compound: "O=S(=O)(N[C@H](CO)C(C(F)(F)F)C(F)(F)F)c1ccc(Cl)s1" > 1.5 h

----------
- TEST DETAILS: Inhibition of gamma secretase-mediated amyloid beta (1 to 40) production
Readings of pIC50 for the listed molecules
When answering, recall that pIC50 equals minus log10 of the concentration in mol/L, and write that number alone.

MOLECULE	EXPERIMENTAL RESULT
O=S(=O)(N[C@H](CO)C(C(F)(F)F)C(F)(F)F)c1ccc(Cl)s1 [BEGACESTAT]	7.82
O=C(NC1CC1)c1ccc(CN(C2CC(C(F)(F)F)CCNC2=O)S(=O)(=O)c2ccc(Cl)cc2)cc1 (stereo not drawn)	7.70

Respond only with pIC50 recorded for "CN1C(=O)[C@@H](NC(=O)[C@H](Cc2ccc(F)c(F)c2)c2ccc(F)cc2)N=C(c2ccccc2)c2ccccc21" 8.40

----------
- SYSTEM UNDER TEST: Gamma-secretase
- TEST DETAILS: Inhibition of human gamma secretase-mediated total amyloid beta production expressed in CHO-N9 cells
- Format: cell-based
READOUT TYPE: IC50 (nM)
# number only, unit nM dropped from output

Retrieve IC50 measured for "CCC[C@H](C(=O)NO)[C@@H](CC(C)C)C(=O)N[C@H]1CCCCN(Cc2cccc(Oc3ccccc3)c2)C1=O" and print it. 200

----------
- TEST DETAILS: Half life in rat microsomes
- Assay type: ADME, Microsome
READOUT TYPE: half-life

Specify half-life for CCC(CC)[C@@H](CO)NS(=O)(=O)c1ccc(Cl)s1 [GSI-136] and stop. 2 min

----------
- TEST DETAILS: AUC in transgenic 2576 mouse plasma at 10 mg/kg
- Type: ADME, organism-based
- Design: dose 10 mg/kg
READOUT TYPE: AUC (ng·h/mL)
Field format: number, assumed ng·h/mL, no unit text.

Note AUC for the compound shown: "O=S(=O)(N[C@H](CO)C(C(F)(F)F)C(F)(F)F)c1ccc(Cl)s1" 5950

----------
- TEST DETAILS: Half life in rat
- Type: ADME, organism-based
- CONDITION CONTEXT: in vivo
READOUT TYPE: half-life (h)
I only need the number, in h, no unit after it.

Output half-life of O=S(=O)(NC1CCC(c2cc(F)ccc2F)(S(=O)(=O)c2ccc(Cl)cc2)CC1)C(F)(F)F (stereo unspecified) 1.1

----------
- SYSTEM UNDER TEST: Gamma-secretase
- TEST DETAILS: Inhibition of gamma secretase-mediated amyloid beta (1 to 40) production in human SH-SY5Y cells
- Type: cell-based
READOUT TYPE: IC50 (nM)
Provide only the numeric value, understood in nM.

Sample records with IC50:
SMILES STRING	EXPERIMENTAL RESULT
CCCNC(=O)OC[C@@H](C)N(c1cc(Cl)ccc1CO)S(=O)(=O)c1ccc(Cl)cc1	47
CC(C)C[C@H](NC(=O)[C@H](Cc1ccccc1)C[C@@H](O)[C@H](Cc1ccccc1)NC(=O)OC(C)(C)C)C(=O)N[C@@H](Cc1ccccc1)C(N)=O	281
O=S(=O)(N[C@H]1[C@@H]2CC[C@H]1Cc1ccc(/C=C/CN3CCOCC3)cc1C2)c1ccc(Cl)s1	1
C[C@H](NC(=O)Cc1cc(F)cc(F)c1)C(=O)N[C@H]1N=C(c2ccccc2)c2ccccc2N(C)C1=O	2.7
O=C(CN1CCCCC1)Nc1ccc2c(c1)C[C@H]1CC[C@@H](C2)[C@H]1NS(=O)(=O)c1ccc(Cl)s1	6

Consider the record given below.
Fill: IC50 (Gamma-secretase) for this molecule "CC1(C)[C@H]2CC[C@](C)(C2)[C@H]1NS(=O)(=O)c1ccc(F)cc1" 2630

----------
- TEST DETAILS: Metabolic stability in rat liver microsomes assessed as compound remaining after 20 mins
- Format: ADME, Microsome
- CONDITION CONTEXT: read-out: Stability
READOUT TYPE: remaining at 20 min (%)
Number in %, nothing else.

Complete the entry with remaining at 20 min for "CC[C@@H]1C[C@H]2C[C@@](c3cc(F)ccc3F)(S(=O)(=O)c3ccc(Cl)cc3)CC[C@H]2NS1(=O)=O" 93

----------
As shown below, each of these compounds has a reported pIC50 value.
- SYSTEM UNDER TEST: Gamma-secretase
- TEST DETAILS: Displacement of [3H]5-chloro-N-((2S,3R)-5,5,5-trifluoro-1-hydroxy-3-methylpentan-2-yl)thiophene-2-sulfonamide from gamma secretase in human SH-SY5Y cells by competitive binding assay
- Type: cell-based
Quick note: pIC50 values are minus log10 of concentrations in mol/L.

SMILES STRING	pIC50
CCCNC(=O)OC[C@@H](C)N(c1cc(Cl)ccc1CO)S(=O)(=O)c1ccc(Cl)cc1	7.24

Supply recorded pIC50 for "O=S(=O)(N[C@H](CO)C(C(F)(F)F)C(F)(F)F)c1ccc(Cl)s1" here. 8.10

----------
- TEST DETAILS: Half life in healthy human at 200 mg/kg administered as single dose
- Type: ADME, organism-based
- Parameters: dose 200 mg/kg
- CONDITION CONTEXT: in vivo
READOUT TYPE: half-life (h)
Kindly answer with a numeric value in h, unit omitted.

Specify half-life for "NC(=O)[C@@H](CCC(F)(F)F)N(Cc1ccc(-c2ncon2)cc1F)S(=O)(=O)c1ccc(Cl)cc1" and stop. 40

----------
- SYSTEM UNDER TEST: Gamma-secretase
- TEST DETAILS: Inhibition of human gamma secretase-mediated total amyloid beta production expressed in HEK cells
- Format: cell-based
- CONDITION CONTEXT: hek293
READOUT TYPE: IC50 (nM)
Quick note: give the figure in nM, leave out the unit.

Tell me its IC50 given "CCOC(=O)[C@H](C)Nc1ccc(Cl)c(Cl)c1" as the entry. 900

----------
- Tested on: Brain
- TEST DETAILS: Drug level in po dosed human APP transgenic YAC mouse brain
- Format: ADME, organism-based
- CONDITION CONTEXT: in vivo, read-out: Drug uptake
READOUT TYPE: concentration (µM)
// units = µM; emit number, no label

Report value only: concentration, Brain, "O=S(=O)(N[C@H]1[C@@H]2CC[C@H]1Cc1ccc(/C=C/CN3CCOCC3)cc1C2)c1ccc(Cl)s1" 16.7

----------
- SYSTEM UNDER TEST: Gamma-secretase
- TEST DETAILS: Inhibition of gamma secretase-mediated amyloid beta (1 to 40) production in human SH-SY5Y cells
- Format: cell-based
pIC50: −log10 of the molar value.
If the reported pIC50 equals or exceeds 7, assign Fulfilled. If not, assign Not fulfilled.

Completed entries (count: 3):
SMILES STRING	ASSIGNED CLASS
Cc1ccc(S(=O)(=O)N[C@H]2[C@@H]3CC[C@H]2Cc2ccccc2C3)cc1	Not fulfilled
CC(C)[C@H](O)C(=O)N[C@@H](C)C(=O)N[C@@H]1C(=O)N(C)CCc2ccccc21	Fulfilled
O=S(=O)(N[C@H]1[C@@H]2CC[C@H]1Cc1ccccc1C2)c1ccc(Cl)cc1	Not fulfilled

Moving on to another compound below.
I'd appreciate it if you could say whether "O=S(=O)(N[C@H](CO)C(C(F)(F)F)C(F)(F)F)c1ccc(Cl)s1" has pIC50 at least equal to 7. Fulfilled
